- Assay overview: Drug metabolism in human plasma assessed as compound remaining after 6 hrs by HPLC analysis
- Assay type: ADME, cell-free
- Setup conditions: read-out: Drug metabolism
Measured attribute: remaining at 6 h (%)
Response body: numeric value in %, unit text excluded.

Lab book: remaining at 6 h of CCC(=O)O[C@]1(C(=O)CO)CC[C@H]2[C@@H]3CCC4=CC(=O)CC[C@]4(C)[C@H]3CC[C@@]21C noted as 11.3

---

- System: Syrian golden hamster
- Assay overview: Antiandrogenic activity in female Syrian golden hamsters assessed as inhibition of testosterone propionate-induced flank organ enlargement at 400 ug per animal, topically relative to untreated control
- Type: functional, Mesocricetus auratus
Measured attribute: inhibition (INH) (%)
API: value field is a number in %; no unit string.

{"Compound": "CC(=O)O[C@]1(C(C)=O)CC[C@H]2[C@@H]3C=C(Cl)C4=CC(=O)[C@@H]5C[C@@H]5[C@]4(C)[C@H]3CC[C@@]21C [CYPROTERONE ACETATE]", "inhibition (INH) [%]": 93}
{"Compound": "C[C@]12CCC(=O)C=C1CC[C@@H]1[C@@H]2CC[C@@]2(C)[C@H]1CC[C@]2(O)C(=O)CO", "inhibition (INH) [%]": 0}
{"Compound": "CCC(=O)OCC(=O)[C@@]1(O)CC[C@H]2[C@@H]3CCC4=CC(=O)CC[C@]4(C)[C@H]3CC[C@@]21C", "inhibition (INH) [%]": 29}
{"Compound": "CCCC(=O)O[C@]1(C(=O)CO)CC[C@H]2[C@@H]3CCC4=CC(=O)CC[C@]4(C)C3=CC[C@@]21C", "inhibition (INH) [%]": 85}
{"Compound": "CCC(=O)O[C@]1(C(=O)CO)CC[C@H]2[C@@H]3CCC4=CC(=O)CC[C@]4(C)[C@H]3CC[C@@]21C", "inhibition (INH) [%]": 84}
{"Compound": "CCC(=O)OCC(=O)[C@@]1(OC(=O)CC)CC[C@H]2[C@@H]3CCC4=CC(=O)CC[C@]4(C)[C@H]3CC[C@@]21C", "inhibition (INH) [%]": 57}

Record CC(C)(C)NC(=O)[C@H]1CC[C@H]2[C@@H]3CC[C@H]4NC(=O)C=C[C@]4(C)[C@H]3CC[C@]12C [FINASTERIDE] / Syrian golden hamster, inhibition (INH) recorded as 71

Values compiled from ChEMBL document CHEMBL3588838.
